# PROTOCOL_SUMMARY: Octanol-water distribution coefficient (LogDpH=7.4)
# Assay type: physicochemical
# TEST_CONTEXT: n-octanol/PBS pH 7.4; radioactive ligand
REPORTED_PROPERTY: LogDpH=7.4

molecule="C[C@@H](O)[C@H](NC(=O)[C@@H]1CSSC[C@H](NC(=O)[C@@H](Cc2ccccc2)NC(=O)CN2CCN(CC(=O)O)CCN(CC(=O)NCCCC[C@@H](NC(=O)[C@@H](CNC(=O)C[N+](C)(C)Cc3ccc([Si](F)(C(C)(C)C)C(C)(C)C)cc3)NC(=O)[C@@H](CCCNC(N)=O)NC(=O)[C@@H](CCCNC(N)=O)NC(=O)[C@H](N)CCCNC(N)=O)C(=O)O)CCN(CC(=O)O)CC2)C(=O)N[C@@H](Cc2ccc(O)cc2)C(=O)N[C@H](Cc2c[nH]c3ccccc23)C(=O)N[C@@H](CCCCN)C(=O)N[C@@H]([C@@H](C)O)C(=O)N1)C(=O)O [[Ga]03]" assay_result=−2.27
